molecular target: HLA-DR DRB1*0301 (DR3) (Homo sapiens, UniProt P01903+P01911, A100K/A102G/A103R/A169T/F55Y/I96L/K41T/L162R/M171V/P40S/Q125H/Q178H/Q39Y/R42S/S66N/T106N/T262R/W38E/Y61H); experiment: biochemical; format: binding
Sequence (P01903 26-254 limits assumed, other chains not shown): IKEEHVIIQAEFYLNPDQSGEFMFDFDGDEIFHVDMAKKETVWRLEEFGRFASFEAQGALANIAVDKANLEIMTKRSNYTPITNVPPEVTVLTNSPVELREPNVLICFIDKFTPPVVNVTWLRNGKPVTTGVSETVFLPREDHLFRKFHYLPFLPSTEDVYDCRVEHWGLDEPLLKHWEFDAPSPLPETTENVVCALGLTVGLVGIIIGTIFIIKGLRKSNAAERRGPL
pIC50: −log10 of the molar value.
READOUT NAME: pIC50

| STRUCTURE | ENDPOINT VALUE |
| --- | --- |
| CSCC[C@H](NC(=O)[C@@H]1CCCN1C(=O)[C@@H](N)CC(=O)O)C(=O)N[C@@H](Cc1ccccc1)C(=O)N[C@@H](CCCCN)C(=O)N[C@@H](Cc1ccc(O)cc1)C(=O)N[C@@H](Cc1c[nH]cn1)C(=O)N[C@@H](CC(C)C)C(=O)N[C@H](C(=O)N[C@H](C(=O)N[C@@H](C)C(=O)N[C@@H](CCC(N)=O)C(=O)N[C@H](C(=O)N[C@@H](CCCNC(=N)N)C(=O)NCC(=O)O)C(C)C)C(C)C)[C@@H](C)O | < 4.12 |

Field: next molecule
Lookup: Query (molecule): C[C@@H](O)[C@H](NC(=O)[C@H](CCCCN)NC(=O)[C@H](CCC(=O)O)NC(=O)[C@H](CCC(=O)O)NC(=O)CNC(=O)[C@H](Cc1ccccc1)NC(=O)[C@H](CCCNC(=N)N)NC(=O)[C@H](Cc1ccccc1)NC(=O)[C@H](CO)NC(=O)[C@H](CCC(=O)O)NC(=O)[C@H](CCC(=O)O)NC(=O)[C@@H]1CCCN1C(=O)[C@@H]1CCCN1)C(=O)N[C@H](C(=O)N1CCC[C@H]1C(=O)N[C@@H](CO)C(=O)O)[C@@H](C)O ; field requested: pIC50
Found: < 3.05

Reference for the values: patent US20060079453A1
